I'd appreciate it if you could supply IC50 FGFR3 (FGF9), FDCP-FGFR3 proliferation assay (dHLX format) values for the items below.
EXPERIMENTAL_TARGET: wild type FGFR3 expressed on cells (UniProt P22607 23-806, limits assumed)
Sequence (P22607 23-806 limits assumed): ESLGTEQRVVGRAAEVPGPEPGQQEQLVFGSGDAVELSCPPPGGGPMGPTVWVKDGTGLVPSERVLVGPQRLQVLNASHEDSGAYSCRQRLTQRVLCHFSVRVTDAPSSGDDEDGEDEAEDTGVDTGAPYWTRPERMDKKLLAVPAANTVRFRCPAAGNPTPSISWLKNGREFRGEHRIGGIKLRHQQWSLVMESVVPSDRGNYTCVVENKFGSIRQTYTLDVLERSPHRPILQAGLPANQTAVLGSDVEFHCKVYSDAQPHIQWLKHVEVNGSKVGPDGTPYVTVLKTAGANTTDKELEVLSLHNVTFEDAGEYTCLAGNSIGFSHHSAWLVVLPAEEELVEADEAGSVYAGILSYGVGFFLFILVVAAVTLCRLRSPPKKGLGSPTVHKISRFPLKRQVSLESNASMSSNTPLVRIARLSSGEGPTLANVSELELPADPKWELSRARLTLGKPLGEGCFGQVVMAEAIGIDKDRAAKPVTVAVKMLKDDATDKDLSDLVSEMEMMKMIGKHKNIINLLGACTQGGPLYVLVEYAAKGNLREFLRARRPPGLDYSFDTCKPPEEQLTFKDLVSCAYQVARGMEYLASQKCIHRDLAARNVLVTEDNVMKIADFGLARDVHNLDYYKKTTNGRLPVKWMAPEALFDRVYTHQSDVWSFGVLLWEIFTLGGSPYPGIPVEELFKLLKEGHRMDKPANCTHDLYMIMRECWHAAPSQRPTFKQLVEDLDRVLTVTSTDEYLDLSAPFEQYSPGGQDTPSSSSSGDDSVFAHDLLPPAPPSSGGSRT
PROTOCOL_SUMMARY: cell-based or functional assay
# output: bare number, implied unit nM

Input PRO-012 (Fab, V domains shown, HuCAL clone; the IC50 may be of the Fab-dHLX format) VH: QVQLKESGPALVKPTQTLTLTCTFSGFSLSTSGVGVGWIRQPPGKALEWLALIDWDDDKYYSTSLKTRLTISKDTSKNQVVLTMTNMDPVDTATYYCARYHSWYEMGYYGSTVGYMFDYWGQGTLVTVSS VL: DIELTQPPSVSVAPGQTARISCSGDALGDKYASWYQQKPGQAPVLVIYDDSDRPSGIPERFSGSNSGNTATLTISGTQAEDEADYYCQSYDFDFAVFGGGTKLTVLG . Output IC50 FGFR3 (FGF9), FDCP-FGFR3 proliferation assay (dHLX format): 58

Entry under test: PRO-029 (Fab, V domains shown, HuCAL clone) VH: QVQLVQSGAEVKKPGASVKVSCKASGYTFTSYYMHWVRQAPGQGLEWMGWINPNSGGTNYAQKFQGRVTMTRDTSISTAYMELSSLRSEDTAVYYCARTWQYSYFYYLDGGYYFDIWGQGTLVTVSS VL: DIVLTQSPATLSLSPGERATLSCRASQSVSSSYLAWYQQKPGQAPRLLIYGASSRATGVPARFSGSGSGTDFTLTISSLEPEDFATYYCQQTNNAPVTFGQGTKVEIKR . Its IC50 FGFR3 (FGF9), FDCP-FGFR3 proliferation assay (dHLX format) was 20

// IC50 FGFR3 (FGF9), FDCP-FGFR3 proliferation assay (dHLX format) lookup, binder = PRO-054 (Fab, V domains shown, HuCAL clone) VH: QVQLVQSGAEVKKPGASVKVSCKASGYTFTSYYMHWVRQAPGQGLEWMGWINPNSGGTNYAQKFQGRVTMTRDTSISTAYMELSSLRSEDTAVYYCARNMAYTNYQYVNMPHFDYWGQGTLVTVSS VL: DIELTQPPSVSVAPGQTARISCSGDALGDKYASWYQQKPGQAPVLVIYDDSDRPSGIPERFSGSNSGNTATLTISGTQAEDEADYYCQSYDYFKLVFGGGTKLTVLG , result: 45

// PRO-026 (Fab, V domains shown, HuCAL clone; the VL is headed 'MS-Pro-26-VL'; also called MS-Pro-26) VH: QVQLVQSGAEVKKPGASVKVSCKASGYTFTSYYMHWVRQAPGQGLEWMGWINPNSGGTNYAQKFQGRVTMTRDTSISTAYMELSSLRSEDTAVYYCARGYWYAYFTYINYGYFDNWGQGTLVTVSS VL: DIALTQPASVSGSPGQSITISCTGTSSDVGGYNYVSWYQQHPGKAPKLMIYDVSNRPSGVSNRFSGSKSGNTASLTISGLQAEDEADYYCQSYDNNSDVVFGGGTKLTVLG : IC50 FGFR3 (FGF9), FDCP-FGFR3 proliferation assay (dHLX format) value = 70

Form: binder = PRO-055 (Fab, V domains shown) VH: QVQLVQSGAEVKKPGASVKVSCKASGYTFTSYYMHWVRQAPGQGLEWMGWINPNSGGTNYAQKFQGRVTMTRDTSISTAYMELSSLRSEDTAVYYCARSMNSTMYWYLRRVLFDHWGQGTLVTVSS VL: DIALTQPASVSGSPGQSITISCTGTSSDVGGYNYVSWYQQHPGKAPKLMIYDVSNRPSGVSNRFSGSKSGNTASLTISGLQAEDEADYYCQSYDMYNYIVFGGGTKLTVLG ; IC50 FGFR3 (FGF9), FDCP-FGFR3 proliferation assay (dHLX format) = 34
